targetOrTestSystem: AxCT mask27 EGFR EH104 L055 version 1

| protein | Percent cleavage |
| --- | --- |
| MMP-7 (protein) YSLFPNSPKWTSKVVTYRIVSYTRDLPHITVDRLVSKALNMWGKEIPLHFRKVVWGTADIMIGFARGAHGDSYPFDGPGNTLAHAFAPGTGLGGDAHFDEDERWTDGSSLGINFLYAATHELGHSLGMGHSSDPNAVMYPTYGNGDPQNFKLSQDDIKGIQKLYGKRSNSRKK | 67% |
| Cathepsin G (protein) IIGGRESRPHSRPYMAYLQIQSPAGQSRCGGFLVREDFVLTAAHCWGSNINVTLGAHNIQRRENTQQHITARRAIRHPQYNQRTIQNDIMLLQLSRRVRRNRNVNPVALPRAQEGLRPGTLCTVAGWGRVSMRRGTDTLREVQLRVQRDRQCLRIFGSYDPRRQICVGDRRERKAAFKGDSGGPLLCNNVAHGIVSYGKSSGVPPEVFTRVSSFLPWIRTTMRS | 0% |
| Neutrophil Elastase (protein) IVGGRRARPHAWPFMVSLQLRGGHFCGATLIAPNFVMSAAHCVANVNVRAVRVVLGAHNLSRREPTRQVFAVQRIFENGYDPVNLLNDIVILQLNGSATINANVQVAQLPAQGRRLGNGVQCLAMGWGLLGRNRGIASVLQELNVTVVTSLCRRSNVCTLVRGRQAGVCFGDSGSPLVCNGLIHGIASFVRGGCASGLYPDAFAPVAQFVNWIDSIIQ | 9% |
| MMP-1 (protein) FVLTEGNPRWEQTHLTYRIENYTPDLPRADVDHAIEKAFQLWSNVTPLTFTKVSEGQADIMISFVRGDHRDNSPFDGPGGNLAHAFQPGPGIGGDAHFDEDERWTNNFREYNLHRVAAHELGHSLGLSHSTDIGALMYPSYTFSGDVQLAQDDIDGIQAIYGRSQNPVQPIGPQTPKACDSKLTFDAITTIRGEVMFFKDRFYMRTNPFYPEVELNFISVFWPQLPNGLEAAYEFADRDEVRFFKGNKYWAVQGQNVLHGYPKDIYSSFGFPRTVKHIDAALSEENTGKTYFFVANKYWRYDEYKRSMDPGYPKMIAHDFPGIGHKVDAVFMKDGFFYFFHGTRQYKFDPKTKRILTLQKANSWFNCRKN | 10% |
| Matriptase (protein) VVGGTDADEGEWPWQVSLHALGQGHICGASLISPNWLVSAAHCYIDDRGFRYSDPTQWTAFLGLHDQSQRSAPGVQERRLKRIISHPFFNDFTFDYDIALLELEKPAEYSSMVRPICLPDASHVFPAGKAIWVTGWGHTQYGGTGALILQKGEIRVINQTTCENLLPQQITPRMMCVGFLSGGVDSCQGDSGGPLSSVEADGRIFQAGVVSWGDGCAQRNKPGVYTRLPLFRDWIKENTGV | 53% |
| MMP-12 (protein) GPVWRKHYITYRINNYTPDMNREDVDYAIRKAFQVWSNVTPLKFSKINTGMADILVVFARGAHGDFHAFDGKGGILAHAFGPGSGIGGDAHFDEDEFWTTHSGGTNLFLTAVHEIGHSLGLGHSSDPKAVMFPTYKYVDINTFRLSADDIRGIQSLYGDPKENQRLPNPDNSEPALCDPNLSFDAVTTVGNKIFFFKDRFFWLKVSERPKTSVNLISSLWPTLPSGIEAAYEIEARNQVFLFKDDKYWLISNLRPEPNYPKSIHSFGFPNFVKKIDAAVFNPRFYRTYFFVDNQYWRYDERRQMMDPGYPKLITKNFQGIGPKIDAVFYSKNKYYYFFQGSNQFEYDFLLQRITKTLKSNSWFGC | 72% |

Reference for the values: patent US20240336909
